Just for reference, patent US11767341B2 is where these values come from.

Lab note: MIC readings collected with S. aureus BAA 977 iErmA for the following compounds.
// return numeric value only (unit: µg/mL, not printed)

Before answering, review these 5 worked examples.
compound="CSC1O[C@H]([C@H](NC(=O)[C@H]2NC[C@@H]3C[C@@H](c4ccc(C#N)cc4)CCO[C@H]32)[C@H](C)Cl)C(O)[C@@H](O)[C@H]1O (some centres unmarked) [FSA-512081a]" assay_metric=MIC reported_value=1
compound="CSC1O[C@H]([C@H](NC(=O)[C@H]2NC[C@@H]3C[C@@H](c4cccc(F)c4)CCO[C@H]32)[C@H](C)Cl)C(O)[C@@H](O)[C@H]1O (some centres unmarked) [FSA-511077]" assay_metric=MIC reported_value=0.25
compound="CSC1O[C@H]([C@H](NC(=O)[C@H]2NC[C@@H]3C[C@H]4C[C@H]4CO[C@H]32)[C@H](C)Cl)C(O)C(O)[C@H]1O (stereo in doubt) [FSA-507007]" assay_metric=MIC reported_value=0.5
compound="CSC1O[C@H]([C@H](NC(=O)[C@H]2NC[C@@H]3C[C@@H](CCc4ccccc4)CCO[C@H]32)[C@H](C)Cl)C(O)[C@@H](O)[C@H]1O (some centres unmarked) [FSA-510021]" assay_metric=MIC reported_value=0.125
compound="CSC1O[C@H]([C@H](NC(=O)[C@H]2NC[C@@H]3C=C(c4ccc(F)cc4)CCO[C@@H]23)[C@H](C)Cl)C(O)[C@@H](O)[C@H]1O (some centres unmarked) [FSA-507052]" assay_metric=MIC reported_value=2

Request: Entry under review: CSC1O[C@H]([C@H](NC(=O)[C@H]2NC[C@@H]3C=C(C#Cc4ccccc4)CCO[C@@H]23)[C@H](C)Cl)C(O)[C@@H](O)[C@H]1O (some centres unmarked) [FSA-510002] . Reported MIC?
Response: 0.25

Request: Entry under review: CSC1O[C@H]([C@H](NC(=O)[C@H]2NC[C@@H]3C[C@@H](c4ccc(C(F)(F)F)cc4)CCO[C@H]32)[C@H](C)Cl)C(O)[C@@H](O)[C@H]1O (some centres unmarked) [FSA-509019] . Reported MIC?
Response: 0.25

Request: Entry under review: CSC1O[C@H]([C@H](NC(=O)[C@H]2NC[C@@H]3C=C(c4cc(F)cc(F)c4)CCO[C@@H]23)[C@H](C)Cl)C(O)[C@@H](O)[C@H]1O (some centres unmarked) [FSA-511074] . Reported MIC?
Response: 2

Request: Entry under review: CSC1O[C@H]([C@H](NC(=O)[C@H]2NC[C@@H]3CC=CCO[C@H]32)[C@H](C)Cl)C(O)[C@@H](O)[C@H]1O (some centres unmarked) [FSA-24035] . Reported MIC?
Response: 0.25

Request: Entry under review: CSC1O[C@H]([C@H](NC(=O)[C@H]2NC[C@@H]3CC=CCO[C@H]32)[C@H](C)Sc2ccc(-c3cccnc3)cc2)C(O)[C@@H](O)[C@H]1O (some centres unmarked) [FSA-213061] . Reported MIC?
Response: 0.25

* * *

- System: S. pneumoniae TP 1537 (ermB + mefA)
- TEST_PROTOCOL: MIC determination
- Type: cell-based
- REPORTED_CONDITIONS: Streptococcus pneumoniae; S. pneumoniae TP 1537 (ermB + mefA); read-out: MIC
ASSAY_METRIC: MIC

Before answering, review these 3 worked examples.
compound="CSC1O[C@H]([C@H](NC(=O)[C@@H]2[C@@H]3OCCCC[C@H]3CN2C)[C@H](C)Cl)C(O)C(O)[C@H]1O (some centres unmarked) [FSA-24040]" assay_metric=MIC reported_value="> 32 µg/mL"
compound="CSC1O[C@H]([C@H](NC(=O)[C@H]2NC[C@@H]3CCCCO[C@H]32)[C@H](C)Cl)C(O)[C@@H](O)[C@H]1O (some centres unmarked) [FSA-22091]" assay_metric=MIC reported_value="32 µg/mL"
compound="CSC1O[C@H]([C@H](NC(=O)[C@H]2NC[C@@H]3CCCO[C@H]32)[C@H](C)Cl)C(O)[C@@H](O)[C@H]1O (some centres unmarked) [FSA-24041]" assay_metric=MIC reported_value="> 32 µg/mL"

Request: Entry under review: CSC1O[C@H]([C@H](NC(=O)[C@H]2NC[C@@H]3CC(F)(F)CCO[C@H]32)[C@H](C)Cl)C(O)[C@@H](O)[C@H]1O (some centres unmarked) [FSA-24036] . Reported MIC?
Response: > 32 µg/mL

Request: Entry under review: CSC1O[C@H]([C@H](NC(=O)[C@H]2NC[C@@H]3C=CCO[C@@H]23)[C@H](C)Cl)C(O)[C@@H](O)[C@H]1O (some centres unmarked) [FSA-24039] . Reported MIC?
Response: > 32 µg/mL

* * *

- System: S. pneumoniae ATCC 49619
- TEST_PROTOCOL: MIC determination
- Assay type: cell-based
- REPORTED_CONDITIONS: Streptococcus pneumoniae, ATCC49619; S. pneumoniae ATCC 49619; read-out: MIC
This listing pairs compounds with measured MIC.
// return numeric value only (unit: µg/mL, not printed)

compound="CSC1O[C@H]([C@H](NC(=O)[C@H]2NC[C@@H]3CC(c4ccc(-c5ccccc5)cc4)=CCO[C@H]32)[C@H](C)Cl)C(O)[C@@H](O)[C@H]1O (stereo partly drawn) [FSA-510001]" assay_metric=MIC reported_value=4
compound="CSC1O[C@H]([C@H](NC(=O)[C@H]2NC[C@@H]3CC(NC4CC4)CCO[C@H]32)[C@H](C)Cl)C(O)[C@@H](O)[C@H]1O (stereo partly drawn) [FSA-510011]" assay_metric=MIC reported_value=8
compound="CSC1O[C@H]([C@H](NC(=O)[C@H]2NC[C@@H]3C=C(C#Cc4cccc(F)c4)CCO[C@@H]23)[C@H](C)Cl)C(O)[C@@H](O)[C@H]1O (stereo partly drawn) [FSA-510003]" assay_metric=MIC reported_value=0.25
compound="CSC1O[C@H]([C@H](NC(=O)[C@H]2NC[C@@H]3C[C@H]4OC(C)(C)O[C@H]4CO[C@H]32)[C@H](C)Cl)C(O)[C@@H](O)[C@H]1O (stereo partly drawn) [FSA-501099]" assay_metric=MIC reported_value=8
compound="CSC1O[C@H]([C@H](NC(=O)[C@H]2NC[C@@H]3C[C@@H](O)[C@@H](O)CO[C@H]32)[C@H](C)Cl)C(O)[C@@H](O)[C@H]1O (stereo partly drawn) [FSA-501076]" assay_metric=MIC reported_value=64
compound="CSC1O[C@H]([C@H](NC(=O)[C@@H]2[C@@H]3OCC=CC[C@H]3CN2C2CC2)[C@H](C)Sc2ccc(-c3cccnc3)cc2)C(O)C(O)[C@H]1O (stereo partly drawn) [FSA-214009a]" assay_metric=MIC reported_value=4
compound="CSC1O[C@H]([C@H](NC(=O)[C@H]2NC[C@@H]3C=C(c4ccc(C(F)(F)F)cc4)CCO[C@@H]23)[C@H](C)Cl)C(O)[C@@H](O)[C@H]1O (stereo partly drawn) [FSA-507053]" assay_metric=MIC reported_value=0.25

// next item, MIC requested
Request: Entry under review: CSC1O[C@H]([C@H](NC(=O)[C@H]2NC[C@@H]3C=C(c4ccc(F)cc4F)CCO[C@@H]23)[C@H](C)Cl)C(O)[C@@H](O)[C@H]1O (stereo partly drawn) [FSA-511072] . Reported MIC?
Response: 0.12

* * *

- Tested on: S. pneumoniae ATCC 49619
- TEST_PROTOCOL: MIC determination
- Assay type: cell-based
- REPORTED_CONDITIONS: Streptococcus pneumoniae, ATCC49619; S. pneumoniae ATCC 49619; read-out: MIC
This listing pairs compounds with measured MIC.
// return numeric value only (unit: mg/L, not printed)

compound="C[C@@H](O)[C@@H](NC(=O)[C@H]1NC[C@@H]2CC=CCO[C@H]21)[C@H]1OC(CN=[N+]=[N-])[C@H](O)[C@H](O)C1O (stereo partly drawn) [FSA-211064]" assay_metric=MIC reported_value=16
compound="CSC1O[C@H]([C@H](NC(=O)[C@H]2NC[C@@H]3CC=CCO[C@@H]32)[C@H](C)Cl)C(O)[C@@H](O)[C@H]1O (stereo partly drawn) [FSA-504059]" assay_metric=MIC reported_value=0.25
compound="CSC1O[C@H]([C@H](NC(=O)[C@H]2NC[C@@H]3CN(Cc4ccccc4)CCO[C@H]32)[C@H](C)Cl)C(O)[C@@H](O)[C@H]1O (stereo partly drawn) [FSA-502002]" assay_metric=MIC reported_value=0.25

Request: Entry under review: CSC1O[C@H]([C@H](NC(=O)[C@H]2NC[C@@H]3CC(NCc4ccccc4F)CCO[C@H]32)[C@H](C)Cl)C(O)C(O)[C@H]1O (stereo partly drawn) [FSA-510072] . Reported MIC?
Response: 30

Request: Entry under review: CSC1O[C@H]([C@H](NC(=O)[C@H]2NC[C@@H]3CC(c4ccc(C(F)(F)F)cc4)=CCO[C@H]32)[C@H](C)Cl)C(O)[C@@H](O)[C@H]1O (stereo partly drawn) [FSA-507060] . Reported MIC?
Response: 0.5
